- Test system: T1, human 4-1BB, full length, on transfected cells (human, UniProt Q07011 24-255)
- T1 construct: whole, on cells; also called CHOK1-h4-1BB
- T1 sequence (Q07011 24-255): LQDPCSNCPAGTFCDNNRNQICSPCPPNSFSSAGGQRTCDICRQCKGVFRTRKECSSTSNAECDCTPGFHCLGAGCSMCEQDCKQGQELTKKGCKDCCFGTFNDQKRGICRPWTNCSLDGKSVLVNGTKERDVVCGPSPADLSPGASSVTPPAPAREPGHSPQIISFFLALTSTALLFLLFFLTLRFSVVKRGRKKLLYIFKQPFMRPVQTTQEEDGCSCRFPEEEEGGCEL
- Assay overview: FACS, CHOK1-h4-1BB cells; Ab 0.00013 ug/ml
average fluorescence intensity overview
Write down the numeric answer in MFI and omit the unit.

Solved entries:
57B3D10 (antibody, V domains shown, also called 4-1BB fully human antibody 57B3D10) VH: QVQLQESGPGLVKPSETLSLTCTVSGGSISSYYWSWIRQPPGKGLEWIGYIYYSGSTNYNPSLKSRVTISVDTSKSQFSLKLTSVTAADTAVYYCAKDSDYYGSGSYSYWYFDLWGRGTLVTVSS VL: EIVMTQSPATLSVSPGERATLSCRASQSVSSNLAWYQQKPGQAPRLLIYGASTRAPGIPARFSGSGSGTEFTLTISSLQSEDFAVYYCQQYNNWPLTFGGGTKVEIK
4.9
11H10C9 (antibody, V domains shown) VH: QVQLVESGGGVVQPGRSLRLSCAASGFTFSSYAMHWVRQAPGKGLEWVAIIWYDGSNQYYADSVKGRFTISRDNSMNTLYLQMNSLRAEDTAVYYCARVEQWLVSYFDFWGQGTLVTVSS VL: EIVMTQSPATLSVSPGERATLSCRASQSVSSNLAWYQQKPGQVPRLLIYGASTRATGIPARFSGSGSGTEFTLTISSLQSEDFAVYYCQQYNNWPTFGGGTKVEIK
3.5
15G10D4 (antibody, V domains shown) VH: QVQLVESGGGVVQPGRSLRLSCAASGFSFSSYAMHWVRQAPGKGLEWVAIIWYDGSNQYYADSVKGRFTISRDNSKNTLYLQMNSLRAEDTAVYYCARVKQWLVSYFDYWGQGTLVTVSS VL: EIVMTQSPATLSVSPGERATLSCRASQSVSSNLAWYQQKPGQVPRLLIYGASTRATGIPARFSGSGSGTEFSLIISSLQSEDFAVYYCQQYNNWPTFGGGTKVEIK
4.2
118F3A2 (antibody, V domains shown) VH: QVQLQQWGAGLLKPSETLSLTCGVYGGSFSTNYWSWIRQSPGKGLEWIGEINHSGNTEYNPSLKSRLTISIDTSKNQFSLKLTSVTAADTAVYYCARMGYHSPSFDFWGQGVLVTVSS VL: KIVMTQSPATLSVSPGERATLPCRVSQGIGSNLAWYQQKPGQAPRLLIYGASTRATGVPARFSGSGSGSEFTLTISSLQSEDLALYYCQQYNNWPLTFGGGTKVEIK
4.4

Determine from records and report average fluorescence intensity for 113F6C6 (antibody, V domains shown, also called 4-1BB fully human antibody 113F6C6; 113F6F6) VH: QVQLVESGGGVVQPGRSLRLSCAASGLTFSSYGMHWVRQAPGKGLEWVAVIWYDGSNKYYADSVKGRFTISRDNSKNTLYLQMNSLRAEDTAVYYCAREEVLWFGELSYNYYYGMDVWGQGTTVTVSS VL: DIQMTQSPSSLSASVGDRVTITCRASQGISNYLAWYQQKPGKVPKLLIYAASTLQSGVPSRFSGSGSGTDFTLTISSLQPEDVATYYCQKYNSVPLTFGGGTKVEIK
2.7
